measurement protocol: Ratio of activity at oxytocin receptor in rat uterus to antidiuretic activity in rat
Design: species or system Urine
*1 amine or outer side, *2 acyl side, *3 side chain or, on linkers, in order; H or OH if unused. Where a SMILES comes first, the peptide text is derived from it. Bridges are numbered along the chain shown (N, C = ends). [ ]: non-standard residue; d: D form. Abu(4-yl) = O=C([C@H](CC[*:3])N[*:1])[*:2]; X1 = O=C([C@@H](O)CS[*:2])[*:1]; X2 = O=C(CCC[*:2])[*:1]; Mpa = O=C(O)CCS
measurement type: Ratio
Give the figure only, with no unit attached.

Item: CC[C@H](C)[C@@H]1NC(=O)[C@H](Cc2ccc(O)cc2)NC(=O)CCSSC[C@@H](C(=O)N2CCC[C@H]2C(=O)N[C@@H](CC(C)C)C(=O)NCC(N)=O)NC(=O)[C@H](CC(N)=O)NC(=O)[C@H](CCC(N)=O)NC1=O [DEMOXYTOCIN] | Ratio: 42

Consider CC[C@H](C)[C@@H]1NC(=O)[C@H](Cc2ccc(O)cc2)NC(=O)[C@@H](O)CSSC[C@@H](C(=O)N2CCC[C@H]2C(=O)N[C@@H](CC(C)C)C(=O)NCC(N)=O)NC(=O)[C@H](CC(N)=O)NC(=O)[C@H](CCC(N)=O)NC1=O (YIQNCPLG-NH2; linker N-5 via X1) . Its measured Ratio is 77

# Ratio (molecule: CC[C@H](C)[C@@H]1NC(=O)[C@H](Cc2ccc(O)cc2)NC(=O)[C@@H](N)CCSC[C@@H](C(=O)N2CCC[C@H]2C(=O)N[C@@H](CC(C)C)C(=O)NCC(N)=O)NC(=O)[C@H](CC(N)=O)NC(=O)[C@H](CCC(N)=O)NC1=O (H-[Abu(4-yl)]YIQNCPLG-NH2; thioether 1-6) ) is 79

Quick note, Ratio for CC[C@H](C)[C@@H]1NC(=O)[C@H](Cc2ccc(O)cc2)NC(=O)[C@@H](O)CSSC[C@@H](C(=O)N2CCC[C@H]2C(=O)N[C@@H](CC(C)C)C(=O)NCC(N)=O)NC(=O)[C@H](CC(N)=O)NC(=O)[C@H]([C@@H](C)O)NC1=O (YITNCPLG-NH2; linker N-5 via X1) landed at 788

GET /value?item= CC[C@H](C)[C@@H]1NC(=O)[C@H](Cc2ccc(O)cc2)NC(=O)CCSSC[C@@H](C(=O)N2CCC[C@H]2C(=O)N[C@@H](CC(C)C)C(=O)NCC(N)=O)NC(=O)[C@H](CC(N)=O)NC(=O)[C@H]([C@@H](C)O)NC1=O ([Mpa]YITNCPLG-NH2; disulfide 1-6) &field=Ratio returns 165

Form field Ratio, entry CC[C@H](C)[C@@H]1NC(=O)[C@H](Cc2ccc(O)cc2)NC(=O)CCCSC[C@@H](C(=O)N2CCC[C@H]2C(=O)N[C@@H](CC(C)C)C(=O)NCC(N)=O)NC(=O)[C@H](CC(N)=O)NC(=O)[C@H](CCC(N)=O)NC1=O (YIQNCPLG-NH2; linker N-5 via X2) : 79

Record summary for CC[C@H](C)[C@@H]1NC(=O)[C@H](Cc2ccc(O)cc2)NC(=O)[C@@H](N)CSSC[C@@H](C(=O)N2CCC[C@H]2C(=O)N[C@@H](CC(C)C)C(=O)NCC(N)=O)NC(=O)[C@H](CC(N)=O)NC(=O)[C@H]([C@@H](C)O)NC1=O (H-CYITNCPLG-NH2; disulfide 1-6) : reported Ratio = 513
